Values were extracted from ChEMBL document CHEMBL3988442.

# Percent Effect values compiled below
ASSAY SYSTEM: Ubiquitin-activating enzyme e1, putative (Leishmania donovani (strain BPK282A1))
PROTOCOL TEXT: Leishmania donovani Ubiquitin Activating Enzyme (LdE1)
Format: functional
Design: scale not given: direction of the effect not stated beside the values
CONDITION SET: 30 µM
Entries with a potency or affinity are not part of this list.
Numeric answer only, unit % assumed.

Here are 3 compounds together with their reported answers.
• Cc1ccc(C)c(OC2CCN(C(=O)c3ccc(C)[nH]c3=O)CC2)c1 = 15.8
• COc1ccc(-c2nnc(SC(C)C(=O)NCC(C)C)[nH]2)c(OC)c1 (stereo not drawn) = 10.5
• CC1(C(=O)N2CCOCC2)CN(Cc2ccccn2)CCO1 (stereo not drawn) = 1.35

Summary for this compound, O=C(NCc1ccccn1)[C@@H]1COC[C@H]2CN(C3CCOCC3)C[C@H]21 : Percent Effect is 8.11

Reported Percent Effect for O=C(NCc1ccc(OCC2CC2)nc1)c1c(F)cccc1F was 2.63

// sample Cc1noc(C(C)C)c1C(=O)N1CCOCC1CC(=O)c1ccco1 (stereo not drawn) , its Percent Effect was 0

compound COc1cc(CNC(=O)NCCCF)cc(Br)c1OC , Percent Effect observed: -2.67

Entry O=C(CN1CCCCCCC1=O)NCc1ccccn1 , Percent Effect reported as 5.48

CCNC(=O)NC(=O)CSC(C)c1c(F)cccc1F (stereo not drawn) has a reported Percent Effect of 2.67

Documented Percent Effect of CCc1nc(CN(C(C)=O)C2CCN(CCc3cnn(C)c3)C2)no1 (stereo not drawn) : 27.9

CCc1nnc2n1CCN(Cc1ccc3c(c1)OCCO3)C2 yielded Percent Effect of 18.9

The value of Percent Effect measured for the compound CC(=O)N1CCCN(C(=O)c2csc(-c3ccc(C)cc3C)n2)CC1 turned out to be 18.9

Percent Effect reported for this compound CC(=O)N1CCN(CC2CCOc3ccccc3C2)CC1 (stereo not drawn) : -1.39

Documented Percent Effect of Cc1nn(C)c(C)c1NC(=O)CN1CCc2c(nc(C(C)C)n2C)C1 : 8.11

GET /value?item= Cc1cc(S(=O)(=O)Nc2cccc(-n3cccc3)c2)sc1C(=O)O &field=Percent Effect returns 0

So, Cc1ccc(-c2cc(C(=O)NC(C)C(=O)N3CCCCC3)on2)cc1 (stereo not drawn) ? Its Percent Effect was 13.2

Value of measured Percent Effect for the entry CC(C)(C)SCCCC(=O)N1CCC(Nc2cccnn2)CC1 : -2.7

The reported value for CCOc1cccc(C(C)NCc2ccc(OC)c(OC)c2OC)c1 (stereo not drawn) in terms of Percent Effect is 16

Just so you know, measured Percent Effect for Cc1nonc1CN(C)CC1(O)CCCN(CCC2CCCCC2)C1=O (stereo not drawn) came out at 8

Lab note: measured Percent Effect of Cn1cc(-c2cnc(N3CCCC3)nc2)cc1C(=O)O was 8.11

Sure, the documented Percent Effect for Cc1ncsc1C(=O)N(C)Cc1ccncc1 is 10.5

Entry CN(C)CCOCC1CN(CC2CCOCC2)Cc2nnn(C)c21 (stereo not drawn) ; Percent Effect = 10.8

* * *

ASSAY SYSTEM: Protein translocase subunit SecA (Escherichia coli (strain K12))
PROTOCOL TEXT: Assay to Identify E. coli SecA ATPase Inhibitors
Format: functional
Parameters: scale not given: direction of the effect not stated beside the values
CONDITION SET: 30 µM
Entries with a potency or affinity are not part of this list.
ENDPOINT: Percent Effect (%)
Report only the number, with the unit % understood.

Reference set, count: 8
• Cc1cccnc1NC(=O)NC(C)Cn1cccn1 (stereo unspecified) = -8.41
• CC(C)NC(=O)N1CCc2ncc(CN3CCOCC3)n2CC1 = 1.23
• Cc1ccc(CCC(=O)N(C)CCN2CCOCC2)c(C)c1 = -0.772
• CCC(CNC(=O)c1cc(OC)ccc1Br)N1CCc2ccccc2C1 (stereo unspecified) = 0.461
• O=C1CO[C@@H]2CN(S(=O)(=O)c3ccccc3)C[C@H]2N1CC1CC1 = -1.03
• Cc1ccc(CN2CC[C@H]3OCC[C@@H](C(=O)NC4CC4)[C@@H]3C2)o1 = -6.72
• O=C(c1ccc2c(c1)CCC2)N1C[C@@H](CN2CCOCC2)[C@@H](CO)C1 = -4.64
• O=C(c1ccco1)N1CC[C@H]2[C@H]1CCN2CC1CCOCC1 = -5.53

// Percent Effect value for O=C(c1ccc(Br)o1)N1CCCC(n2cncn2)C1 (stereo unspecified) : -5.45

Percent Effect recorded for this compound, Fc1cc(CNCc2ccc3c(c2)CCO3)ccc1N1CCOCC1 , is -0.571

Lab note: CC(=O)N1C[C@H](NC(=O)c2cscn2)[C@@H]2OCCC[C@@H]21 gave Percent Effect of -1.76
